Value source: paper PMC6150237

Protocol Description: In situ single-pass intestinal perfusion (SPIP), saponins administrated in MDQ-TS form
Assay type: in vivo, rat
Condition Details: male, Sprague-Dawley, rat, other: in situ single-pass intestinal perfusion, MDQ-TS form 1.25 mg·mL^−1, duodenum, n = 5
Result Type: Papp (×10⁻⁶ cm/s)
Entry rule: numbers only, all in ×10⁻⁶ cm/s.

For record C[C@@H]1CC[C@]2(C(=O)O)CC[C@]3(C)C(=CC[C@@H]4[C@@]5(C)CC[C@H](O)[C@@](C)(C(=O)O)[C@@H]5CC[C@]43C)[C@@H]2[C@]1(C)O the listed Papp is 36.7

For record CC1CCC2(C(=O)OC3OC(CO)C(O)C(O)C3O)CCC3(C)C(=CCC4C5(C)CCC(O)C(C)(C(=O)O)C5CCC43C)C2C1(C)O (centres unmarked) the listed Papp is 28.3
